- system_name: cynomolgus PSMA, full-length, on CHO cells (cynomolgus, UniProt A0A2K5VNZ0 1-750)
- procedure_details: cell-based or functional assay
experimental_endpoint: His-ZAP cell killing, cyno PSMA EC50 (nM)

binder	quantity_unit	measured_value
single VH domain antibody 2.17 (VHH, Human single VH domain antibody (Humabody); C-terminal His tag, residues not tied) VHH: EVQLVESGGGVVQPGRSLRLSCAASGFSFSGYGMHWVRQAPGKGLEWVAYISYDASNKYYADNVKGRFTISRDNSKNTLYLQMNSLRAEDTAVYYCAKDPAWGLRLGESSSYDFDIWGQGTMVTVSS	nM	0.07
single VH domain antibody 2.13 (VHH, Human single VH domain antibody (Humabody); C-terminal His tag, residues not tied) VHH: EVQLVESGGGVVQPGRSLRLSCAASGFSFSGYGLHWVRQAPGKGLEWVAYISYDASNKYYADNVKGRFTISRDNSKNTLYLQMNSLRAEDTAVYYCAKDPAWGLRLGESSSYDFDIWGQGTMVTVSS	nM	0.08
single VH domain antibody 1.11 (VHH, Human single VH domain antibody (Humabody)) VHH: EVQLLESGGGLVQPGGSLRLSCAASGFSFSSYALSWVRQAPGKGLEWVSSIGENNDTTDYADNVKGRFTISRDNSKNTLYLQMNSLRVEDTAVYYCVKDGVHWGQGTLVTVSS	nM	0.41
single VH domain antibody 1.16 (VHH, Human single VH domain antibody (Humabody)) VHH: EVQLLESGGGLVQPGGSLRLSCAASGFSFSSYALSWVRQAPGKGLEWVSSIGENNHTTDYADTVKGRFTISRDNSKNTLYLQMNSLRVEDTAVYYCVKDGVHWGQGTLVTVSS	nM	0.42
single VH domain antibody 1.8 (VHH, Human single VH domain antibody (Humabody)) VHH: EVQLLESGGGLVQPGGSLRLSCAASGFSFSSYAMSWVRQAPGKGLEWVSSIGENDGTTDYADSVKGRFTISRDNSKNTLYLQMNSLRVEDTAVYYCVKDGVHWGQGTLVTVSS	nM	1.4
single VH domain antibody 2.22 (VHH, Human single VH domain antibody (Humabody); C-terminal His tag, residues not tied) VHH: EVQLVESGGGVVQPGRSLRLSCAASGFSFSGYGTHWVRQAPGKGLEWVAYISYDGSNKYYAAPVKGRFTISRDNSKNTLYLQMNSLRAEDTAVYYCAKDAAWGLRLGESSSYDFDIWGQGTMVTVSS	nM	0.18
single VH domain antibody 1.10 (VHH, Human single VH domain antibody (Humabody)) VHH: EVQLLESGGGLVQPGGSLRLSCAASGFSFSSYALSWVRQAPGKGLEWVSSIGENNATTDYADFVKGRFTISRDNSKNTLYLQMNSLRVEDTAVYYCVKDGVHWGQGTLVTVSS	nM	1.3
single VH domain antibody 2.12 (VHH, Human single VH domain antibody (Humabody); C-terminal His tag, residues not tied) VHH: EVQLVESGGGVVQPGRSLRLSCAASGFSFSGYGMHWVRQAPGKGLEWVAYISYDKSNKYYADKVKGRFTISRDNSKNTLYLQMNSLRAEDTAVYYCAKDPAWGLRLGESSSYDFDIWGQGTMVTVSS	nM	0.091

Cited source: patent US20200131274A1
